Assay: Solubility in aqueous buffers of varying pH
Type: physicochemical
Details: aqueous buffer; pH 3 (0.01M formate buffer); ambient temperature; compound 1 as acetate salt
*1 amine or outer side, *2 acyl side, *3 side chain or, on linkers, in order; H or OH if unused. Where a SMILES comes first, the peptide text is derived from it. Bridges are numbered along the chain shown (N, C = ends). [ ]: non-standard residue; d: D form. The star is where a group is joined. pTerphenylCO(4''-OnC5H11) = CCCCCOc1ccc(-c2ccc(-c3ccc(C(=O)*)cc3)cc2)cc1; Orn(4R-OH,5R-OH) = O=C([C@H](C[C@@H](O)[C@@H](O)N[*:3])N[*:1])[*:2]; hTyr(3S-OH,4S-OH) = N[C@H](C(=O)O)[C@H](O)[C@@H](O)c1ccc(O)cc1; Pro(3S-OH,4S-Me) = C[C@H]1CN[C@H](C(=O)O)[C@H]1O; Hyp = O=C(O)[C@@H]1C[C@@H](O)CN1
observation_type: solubility

{"compound": "CCCCCOc1ccc(-c2ccc(-c3ccc(C(=O)N[C@H]4C[C@@H](O)C(OCC[N+](C)(C)C)NC(=O)C5[C@@H](O)[C@@H](C)CN5C(=O)C([C@@H](C)O)NC(=O)C([C@H](O)[C@@H](O)c5ccc(O)cc5)NC(=O)C5C[C@@H](O)CN5C(=O)C([C@@H](C)O)NC4=O)cc3)cc2)cc1 (some centres unmarked)", "obs_value": "> 15000 µg/mL"}
{"compound": "CCCCCOc1ccc(-c2ccc(-c3ccc(C(=O)N[C@H]4C[C@@H](O)[C@@H](O)NC(=O)[C@@H]5[C@@H](O)[C@@H](C)CN5C(=O)[C@H]([C@@H](C)O)NC(=O)[C@H]([C@H](O)[C@@H](O)c5ccc(O)cc5)NC(=O)[C@@H]5C[C@@H](O)CN5C(=O)[C@H]([C@@H](C)O)NC4=O)cc3)cc2)cc1 [anidulafungin, reference compound] ({pTerphenylCO(4''-OnC5H11)}-[Orn(4R-OH,5R-OH)]T[Hyp][hTyr(3S-OH,4S-OH)]T[Pro(3S-OH,4S-Me)]; lactam 1-C)", "obs_value": "< 10 µg/mL"}

----------
Test system: C. albicans R303
Experiment: mouse candidiasis infection model, IP administration, kidney fungal burden
Assay type: in vivo
Settings: Candida albicans, R303, ip, 24 h, Fourth run; IP 1.5 mg/kg; read-out: Difference from 24-h control
observation_type: log reduction at 1.5 mg/kg

{"molecule": "CCCCCOc1ccc(-c2ccc(-c3ccc(C(=O)N[C@H]4C[C@@H](O)C(NCCOCCO)NC(=O)C5[C@@H](O)[C@@H](C)CN5C(=O)C([C@@H](C)O)NC(=O)C([C@H](O)[C@@H](O)c5ccc(O)cc5)NC(=O)C5C[C@@H](O)CN5C(=O)C([C@@H](C)O)NC4=O)cc3)cc2)cc1 (stereo partly drawn)", "target_entity": "C. albicans R303", "obs_value": 2.13}
{"molecule": "CCCCCOc1ccc(-c2ccc(-c3ccc(C(=O)N[C@H]4C[C@@H](O)C(NCCOCCOC)NC(=O)C5[C@@H](O)[C@@H](C)CN5C(=O)C([C@@H](C)O)NC(=O)C([C@H](O)[C@@H](O)c5ccc(O)cc5)NC(=O)C5C[C@@H](O)CN5C(=O)C([C@@H](C)O)NC4=O)cc3)cc2)cc1 (stereo partly drawn)", "target_entity": "C. albicans R303", "obs_value": 1.02}
{"molecule": "CCCCCOc1ccc(-c2ccc(-c3ccc(C(=O)N[C@H]4C[C@@H](O)C(NCCOCCOCCOCCN)NC(=O)C5[C@@H](O)[C@@H](C)CN5C(=O)C([C@@H](C)O)NC(=O)C([C@H](O)[C@@H](O)c5ccc(O)cc5)NC(=O)C5C[C@@H](O)CC5C(=O)C([C@@H](C)O)NC4=O)cc3)cc2)cc1 (stereo partly drawn)", "target_entity": "C. albicans R303", "obs_value": 0.31}

----------
Test: Solubility in non-aqueous solvents
Type: physicochemical
Conditions: organic solvent or mixture; Glycerol; compound 1 as acetate salt
*1 amine or outer side, *2 acyl side, *3 side chain or, on linkers, in order; H or OH if unused. Where a SMILES comes first, the peptide text is derived from it. Bridges are numbered along the chain shown (N, C = ends). [ ]: non-standard residue; d: D form. The star is where a group is joined. pTerphenylCO(4''-OnC5H11) = CCCCCOc1ccc(-c2ccc(-c3ccc(C(=O)*)cc3)cc2)cc1; Orn(4R-OH,5R-OH) = O=C([C@H](C[C@@H](O)[C@@H](O)N[*:3])N[*:1])[*:2]; hTyr(3S-OH,4S-OH) = N[C@H](C(=O)O)[C@H](O)[C@@H](O)c1ccc(O)cc1; Pro(3S-OH,4S-Me) = C[C@H]1CN[C@H](C(=O)O)[C@H]1O; Hyp = O=C(O)[C@@H]1C[C@@H](O)CN1
Reported solubility is given for each of the following molecules.

{"molecule": "CCCCCOc1ccc(-c2ccc(-c3ccc(C(=O)N[C@H]4C[C@@H](O)[C@@H](O)NC(=O)[C@@H]5[C@@H](O)[C@@H](C)CN5C(=O)[C@H]([C@@H](C)O)NC(=O)[C@H]([C@H](O)[C@@H](O)c5ccc(O)cc5)NC(=O)[C@@H]5C[C@@H](O)CN5C(=O)[C@H]([C@@H](C)O)NC4=O)cc3)cc2)cc1 [anidulafungin, reference compound] ({pTerphenylCO(4''-OnC5H11)}-[Orn(4R-OH,5R-OH)]T[Hyp][hTyr(3S-OH,4S-OH)]T[Pro(3S-OH,4S-Me)]; lactam 1-C)", "qualifier_operator": "=", "solubility, µg/mL": 1500}
{"molecule": "CCCCCOc1ccc(-c2ccc(-c3ccc(C(=O)N[C@H]4C[C@@H](O)C(OCC[N+](C)(C)C)NC(=O)C5[C@@H](O)[C@@H](C)CN5C(=O)C([C@@H](C)O)NC(=O)C([C@H](O)[C@@H](O)c5ccc(O)cc5)NC(=O)C5C[C@@H](O)CN5C(=O)C([C@@H](C)O)NC4=O)cc3)cc2)cc1 (some centres unmarked)", "qualifier_operator": ">", "solubility, µg/mL": 19400}

----------
Assay: Pharmacokinetics in beagle dogs, intravenous
Assay type: in vivo
Details: beagle, dog, in vivo, iv, 1.4 mg/kg
observation_type: Vd (L/kg)

{"compound": "CCCCCOc1ccc(-c2ccc(-c3ccc(C(=O)N[C@H]4C[C@@H](O)C(OCCOCCN)NC(=O)C5[C@@H](O)[C@@H](C)CN5C(=O)C([C@@H](C)O)NC(=O)C([C@H](O)[C@@H](O)c5ccc(O)cc5)NC(=O)C5C[C@@H](O)CN5C(=O)C([C@@H](C)O)NC4=O)cc3)cc2)cc1 (stereo partly shown)", "obs_value": 0.627}

----------
Reported CI is given for each of the following compounds.
Test: Pharmacokinetics in beagle dogs, intravenous
Type: in vivo
Details: 1.4 mg/kg intravenous slow bolus; mean ± SEM; n = 4 beagle dogs
*1 amine or outer side, *2 acyl side, *3 side chain or, on linkers, in order; H or OH if unused. Where a SMILES comes first, the peptide text is derived from it. Bridges are numbered along the chain shown (N, C = ends). [ ]: non-standard residue; d: D form. The star is where a group is joined. pTerphenylCO(4''-OnC5H11) = CCCCCOc1ccc(-c2ccc(-c3ccc(C(=O)*)cc3)cc2)cc1; Orn(4R-OH,5R-OH) = O=C([C@H](C[C@@H](O)[C@@H](O)N[*:3])N[*:1])[*:2]; hTyr(3S-OH,4S-OH) = N[C@H](C(=O)O)[C@H](O)[C@@H](O)c1ccc(O)cc1; Pro(3S-OH,4S-Me) = C[C@H]1CN[C@H](C(=O)O)[C@H]1O; Hyp = O=C(O)[C@@H]1C[C@@H](O)CN1

{"compound": "CCCCCOc1ccc(-c2ccc(-c3ccc(C(=O)N[C@H]4C[C@@H](O)C(OCC[N+](C)(C)C)NC(=O)C5[C@@H](O)[C@@H](C)CN5C(=O)C([C@@H](C)O)NC(=O)C([C@H](O)[C@@H](O)c5ccc(O)cc5)NC(=O)C5C[C@@H](O)CN5C(=O)C([C@@H](C)O)NC4=O)cc3)cc2)cc1 (stereo partly shown)", "CI (mL/min/kg)": 0.301}
{"compound": "CCCCCOc1ccc(-c2ccc(-c3ccc(C(=O)N[C@H]4C[C@@H](O)[C@@H](O)NC(=O)[C@@H]5[C@@H](O)[C@@H](C)CN5C(=O)[C@H]([C@@H](C)O)NC(=O)[C@H]([C@H](O)[C@@H](O)c5ccc(O)cc5)NC(=O)[C@@H]5C[C@@H](O)CN5C(=O)[C@H]([C@@H](C)O)NC4=O)cc3)cc2)cc1 [anidulafungin, reference compound] ({pTerphenylCO(4''-OnC5H11)}-[Orn(4R-OH,5R-OH)]T[Hyp][hTyr(3S-OH,4S-OH)]T[Pro(3S-OH,4S-Me)]; lactam 1-C)", "CI (mL/min/kg)": 0.785}
{"compound": "CCCCCOc1ccc(-c2ccc(-c3ccc(C(=O)N[C@H]4C[C@@H](O)C(NCCNCCO)NC(=O)C5[C@@H](O)[C@@H](C)CN5C(=O)C([C@@H](C)O)NC(=O)C([C@H](O)[C@@H](O)c5ccc(O)cc5)NC(=O)C5C[C@@H](O)CC5C(=O)C([C@@H](C)O)NC4=O)cc3)cc2)cc1 (stereo partly shown)", "CI (mL/min/kg)": 0.377}
{"compound": "CCCCCOc1ccc(-c2ccc(-c3ccc(C(=O)N[C@H]4C[C@@H](O)C(NCC[N+](C)(C)C)NC(=O)C5[C@@H](O)[C@@H](C)CN5C(=O)C([C@@H](C)O)NC(=O)C([C@H](O)[C@@H](O)c5ccc(O)cc5)NC(=O)C5C[C@@H](O)CC5C(=O)C([C@@H](C)O)NC4=O)cc3)cc2)cc1 (stereo partly shown)", "CI (mL/min/kg)": 0.365}
